# assay-system: NF-kB p65 (RelA) (UniProt Q04206 Q04206:1-551)
# Sequence (Q04206 whole entry, one chain of several): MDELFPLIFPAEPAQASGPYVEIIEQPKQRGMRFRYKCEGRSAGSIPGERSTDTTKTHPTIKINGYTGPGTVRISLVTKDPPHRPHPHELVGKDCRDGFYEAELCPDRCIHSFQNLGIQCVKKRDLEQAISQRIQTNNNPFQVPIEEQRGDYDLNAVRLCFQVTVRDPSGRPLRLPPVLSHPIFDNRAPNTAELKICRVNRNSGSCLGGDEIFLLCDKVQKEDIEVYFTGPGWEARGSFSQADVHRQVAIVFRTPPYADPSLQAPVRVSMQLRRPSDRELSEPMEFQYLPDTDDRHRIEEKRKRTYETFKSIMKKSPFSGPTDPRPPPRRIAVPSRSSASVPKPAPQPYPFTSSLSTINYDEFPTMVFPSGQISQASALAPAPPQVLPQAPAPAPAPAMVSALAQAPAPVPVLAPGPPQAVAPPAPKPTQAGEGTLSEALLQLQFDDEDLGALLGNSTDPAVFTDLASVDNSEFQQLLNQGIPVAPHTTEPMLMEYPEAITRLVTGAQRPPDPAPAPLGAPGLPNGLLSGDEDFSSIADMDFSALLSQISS
# procedure-text: competition
# assay-conditions: protein: extract; tags: native, Jurkat nuclear extract (TransAM NF-kB p65 kit, Active Motif)
readout-name: binding signal

Record excerpt, results attached:
> print(dat)
                                     binder                      result
1  SEQ-17 (dsDNA) DNA 1: TTGAGGGGATTTCCCC DNA 2: GGGGAAATCCCCTCAA     0.3 IC50 ratio to SEQ-I
2  SEQ-16 (dsDNA) DNA 1: TGAGGGGATTTCCCC DNA 2: GGGGAAATCCCCTCA    0.42 IC50 ratio to SEQ-I
3  SEQ-46 (dsDNA, PS at 2 bonds at each end of both strands) DNA 1: CCTTGAAGGGACTTTCCTCC DNA 2: GGAGGAAAGTCCCTTCAAGG  > 1.67 IC50 ratio to SEQ-x
4  SEQ-20 (dsDNA) DNA 1: GGGGATTTCCCCC DNA 2: GGGGGAAATCCCC  > 3.45 IC50 ratio to SEQ-I
5  SEQ-23 (dsDNA) DNA 1: TGAGGGGATTTCCCCC DNA 2: GGGGGAAATCCCCTCA    0.69 IC50 ratio to SEQ-I

Next, consider the following binder.
Q) Please give the documented binding signal of SEQ-19 (dsDNA) DNA 1: CCTTGAGGGGATTTCCCC DNA 2: GGGGAAATCCCCTCAAGG
A) 0.26 IC50 ratio to SEQ-I

These entries and their values trace back to patent US20090143319.
